B1: RSPH3 (parent)
chain: VDVQTELYLEEIADRIIEVDMECQ

- Variants of: B1
- assayOverview: protein stability index of a GFP-peptide fusion (GPS, HEK-293T) (PSI 1-6); higher = more stable;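 note: lentivirally expressed fusions sorted by FACS into six bins by GFP to DsRed ratio, PSI derived from sequencing read proportions per bin multiplied by bin number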
- conditionsUsed: c terminus: a fixed tail appended
Short version: protein stability index at least 2 is YES, less is NO.

Q: Threshold query (protein stability index >= 2) on `A13P`
Result: YES

Q: Check this variant for protein stability index at or above 2: `R15Q`
Result: YES

Q: Reported protein stability index reaches at least 2 for `E6C` ?
Result: NO

Q: Is protein stability index at least 2? Consider `Y8V`
Result: YES

Q: Item `E18W` with protein stability index of 2 or above?
Result: YES

Q: Could you tell me if the measured protein stability index of `L7D` reaches 2 or more?
Result: YES

Q: For this variant, is measured protein stability index 2 or higher? `V19S`
Result: YES

Q: Could you verify whether the entry `I16A` shows protein stability index of no less than 2?
Result: YES

Q: Item `I12T` with protein stability index of 2 or above?
Result: YES

Q: Hi, just wondering whether `L9R` shows protein stability index of 2 or higher.
Result: YES

Q: Record `I16E` ; criterion: protein stability index no lower than 2. Met?
Result: YES

Q: In plain terms: is recorded protein stability index at least 2 for `Y8F` ?
Result: NO

Q: hey, is protein stability index for this one >= 2? `D20K`
Result: YES

Q: Kindly determine if protein stability index recorded for `Q24V` is above or exactly 2.
Result: NO

Q: Could you please find out whether `D20Q` has protein stability index that meets 2 or exceeds it?
Result: YES

Q: Dear colleague, could you confirm whether `L9V` has protein stability index at or above 2?
Result: YES

Q: Entry `L7K` : is its protein stability index no less than 2?
Result: YES

Q: Does protein stability index meet or surpass 2 for `M21W` ?
Result: NO

Q: Test whether the variant `D2Q` records protein stability index of 2 or higher.
Result: NO

Q: Please indicate if the recorded protein stability index for `L9N` meets or exceeds 2.
Result: YES

Q: Does the variant `D20T` have recorded protein stability index that is 2 or more?
Result: YES

Q: Record `D20E` ; criterion: protein stability index no lower than 2. Met?
Result: NO

Q: Decide: protein stability index of `M21C` >= 2?
Result: YES

Q: Decide: protein stability index of `Q4G` >= 2?
Result: YES

Q: Evaluate `R15D` : protein stability index at minimum 2?
Result: YES

Q: Reported protein stability index at or above 2? `M21H`
Result: YES

Q: Check the entry `V1H` : does protein stability index equal or exceed 2?
Result: YES

Q: State whether the measured protein stability index reaches 2, counting equality as reaching it, for `V3W`
Result: YES

Q: Could you please find out whether `V19I` has protein stability index that meets 2 or exceeds it?
Result: YES

Q: Say whether `Y8R` shows protein stability index of 2 or more.
Result: YES

Q: I'd appreciate it if you could say whether `T5D` has protein stability index at least equal to 2.
Result: YES

Q: Does `A13E` have a reported protein stability index of at least 2?
Result: YES

Q: Could you tell me if the measured protein stability index of `T5E` reaches 2 or more?
Result: YES

Q: Does the variant `E10A` have recorded protein stability index that is 2 or more?
Result: NO

Q: protein stability index >= 2 for `A13R` ?
Result: YES

Q: Determine whether this variant has protein stability index no lower than 2: `V3L`
Result: YES

Q: In plain terms: is recorded protein stability index at least 2 for `Q24F` ?
Result: NO

Q: Reported protein stability index at or above 2? `L7Q`
Result: YES

Q: Decide: protein stability index of `I12E` >= 2?
Result: YES

Q: Tell me whether protein stability index is at least 2 here: `E6V`
Result: YES

Q: Hi team, for `Q24W` , is the recorded protein stability index at or above 2?
Result: NO

Q: hey, is protein stability index for this one >= 2? `E6W`
Result: YES

Q: Decide: protein stability index of `T5Q` >= 2?
Result: YES

Q: Does the reported protein stability index for `A13F` fall at or above the 2 mark?
Result: YES

Q: Is protein stability index at least 2? Consider `A13C`
Result: YES

Q: Decide: protein stability index of `E22K` >= 2?
Result: YES
